Reference source: patent US7897773B2

target: 11beta-HSD1 enzyme (Homo sapiens); construct: made in house; host or cells: Saccharomyces cerevisiae; test: SPA (Scintillation Proximity Assay) of 11beta-HSD1 inhibition, 384 well format; format: biochemical
Sequence (P28845 whole entry, species assumed): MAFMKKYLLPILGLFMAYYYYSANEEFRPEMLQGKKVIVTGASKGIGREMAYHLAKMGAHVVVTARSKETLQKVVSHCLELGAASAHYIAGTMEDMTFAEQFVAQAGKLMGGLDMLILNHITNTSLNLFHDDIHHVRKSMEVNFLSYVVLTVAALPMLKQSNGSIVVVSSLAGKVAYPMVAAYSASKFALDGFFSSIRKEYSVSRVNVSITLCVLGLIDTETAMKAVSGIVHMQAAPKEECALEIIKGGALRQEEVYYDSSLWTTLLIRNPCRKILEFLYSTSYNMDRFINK
Counter-ions that a name gives are not always drawn.
observable: pIC50
Just so you know, pIC50 here is -log10 of the concentration in molar units; reply with that number alone.

Exercise: If you can, please state the reported pIC50 value of O=C(N1CCCc2ccccc21)N1C2CCC1CC(c1cccnc1)C2 (centres unmarked) [Compound 4, Hydrochloride] .
Key: 7.72

Now look at this one.
Exercise: Suppose we examine the compound O=C(N1CCCc2ccccc21)N1C2C=C(c3cccnc3F)CC1CC2 (centres unmarked) ; what pIC50 value has been reported?
Key: 6.91
